Tested on: TGFβ signal
Assay: TGFβ signal inhibitory activity, (SBE)4-Luc reporter in A549 cells (Test Examples 1A and 1B)
Type: cell-based, human
Study Conditions: Homo sapiens, A549; test compound 3 µM; TGFβ-1 2 ng/ml, 4 hr; Table 1A; read-out: TGFβ inhibition rate, %
Description: Test Example 1A: TGFβ signal inhibitory activity (in vitro test) The compounds according to the present invention was evaluated for TGFβ signal inhibitory activity according to the method described in J. Boil .Chem., 273, 21145-21152 (1998). […] After the culture, the luciferase activity of the cells were measured by chemiluminescence (Steady Glo (trademark) luciferase assay system, available from Promega). […]
Decision: inhibition at 3 µM >= 80% yields Condition met, all other cases yield Condition not met.

1. CCc1ccc(Oc2ccnc3ccc(OCc4ccccc4)cc23)c(-c2ncccn2)n1 Condition met
2. COc1ccc2nccc(Oc3cc4cccnc4nc3-c3ccccc3)c2c1 Condition met
3. COc1cc2nccc(Oc3cc4cccnc4nc3-c3ccc(Br)cc3)c2cc1OC Condition not met

Given "COc1cccc(-c2nc3ncccc3cc2Oc2ccnc3cc(OC)c(OC)cc23)c1" , state whether its inhibition at 3 µM is at least 80%.
Condition met

Given "COc1ccc2c(Oc3cc(C)c(C)nc3-c3ccccn3)ccnc2c1" , state whether its inhibition at 3 µM is at least 80%.
Condition met

Given "CCc1ccc(Oc2ccnc3cc(OC)c(F)cc23)c(-c2ccccn2)n1" , state whether its inhibition at 3 µM is at least 80%.
Condition met

###

Tested on: TGFβ signal
Assay: TGFβ signal inhibitory activity, (SBE)4-Luc reporter in A549 cells (Test Examples 1A and 1B)
Type: cell-based, human
Study Conditions: Homo sapiens, A549; 3 µM; compounds of Reference Examples (Test Example 1B); read-out: TGFβ inhibition rate, %
Value Type: inhibition at 3 µM (%)
Supply the numeric figure in %, leaving out any unit text.

Molecule	inhibition at 3 µM, %
CCOC(=O)C1CCN(CCOc2cc3nccc(Oc4cc5ccccc5nc4C)c3cc2OC)CC1 [Compound r363]	100
COc1cc2c(Oc3cc(C)c(C)nc3-c3ccc(C)cn3)ccnc2cc1OCC(O)CO (stereo not shown) [Compound r463]	77

Given COc1cc2nccc(Oc3cc4ccccc4nc3-c3ccc(F)cc3)c2cc1OC [r285] , state its recorded inhibition at 3 µM.
65

Given COc1cc2c(Oc3cc(C)c(C)cc3C(C)=O)ccnc2cc1OCCCl [Compound r315] , state its recorded inhibition at 3 µM.
98

###

Tested on: TGFβ signal
Assay: TGFβ signal inhibitory activity, (SBE)4-Luc reporter in A549 cells (Test Examples 1A and 1B)
Format: cell-based, human
Study Conditions: Homo sapiens, A549; 3 µM; compounds of Reference Examples (Test Example 1B); read-out: TGFβ inhibition rate, %
inhibition at 3 µM values for the compounds below.
// return the numeric value with its unit appended

Solved entries:
1. COc1cc2c(Oc3cc(C)c(C)cc3C(C)=O)ccnc2cc1OCCn1ccnc1 100%
2. COc1cc2c(Oc3cc4ccccc4nc3C)ccnc2cc1OCCCl 54%

Now, please, on to the next compound.
Given "COc1cc2c(Oc3cc4ccccc4nc3C(C)=O)ccnc2cc1OCC(CO)CO" , state its recorded inhibition at 3 µM.
96%

###

Selectivity for BMP (times) values for the compounds below.
System: BMP4 signal
Assay: BMP signal inhibitory activity, p(GCCG)12-Luc reporter in HepG2 cells (Test Example 7)
Assay type: cell-based, human
Study Conditions: Inhibitory activity against BMP4 signal (IC50)/Inhibitory activity against TGFβ signal (IC50); HepG2 reporter cells, BMP4 20 ng/ml, TGFβ-1 2 ng/ml, 4 hr
Supply the numeric figure in times, leaving out any unit text.

Given Cc1cc(Oc2ccnc3ccc(OCCO)cc23)c(-c2ncccn2)nc1C [Compound 200] , state its recorded Selectivity for BMP (times).
75
